Value source: ChEMBL document CHEMBL5291721

Target: Prostaglandin G/H synthase 1 (Homo sapiens, UniProt P23219); also: assay procedure not described here
Sequence (P23219 whole entry): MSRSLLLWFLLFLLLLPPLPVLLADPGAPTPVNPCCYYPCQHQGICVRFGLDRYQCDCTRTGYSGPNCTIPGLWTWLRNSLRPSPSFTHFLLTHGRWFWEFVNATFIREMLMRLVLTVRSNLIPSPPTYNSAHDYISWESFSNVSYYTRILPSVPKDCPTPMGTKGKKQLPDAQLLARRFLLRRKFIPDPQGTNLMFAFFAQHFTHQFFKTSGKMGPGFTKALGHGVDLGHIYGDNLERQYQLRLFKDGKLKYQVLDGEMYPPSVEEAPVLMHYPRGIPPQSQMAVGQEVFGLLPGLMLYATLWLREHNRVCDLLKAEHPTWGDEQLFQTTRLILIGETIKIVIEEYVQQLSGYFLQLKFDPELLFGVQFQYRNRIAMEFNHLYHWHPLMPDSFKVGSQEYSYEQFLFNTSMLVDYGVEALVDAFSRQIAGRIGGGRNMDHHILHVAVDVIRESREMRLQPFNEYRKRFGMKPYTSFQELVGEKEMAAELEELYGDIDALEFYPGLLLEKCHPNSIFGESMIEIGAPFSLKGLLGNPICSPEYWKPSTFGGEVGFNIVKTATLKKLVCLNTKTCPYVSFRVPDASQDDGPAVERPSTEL
Type: functional
AC50: recorded values

Write down AC50 measured for item Cc1ccc(C)c(OCCCC(C)(C)C(=O)O)c1 [GEMFIBROZIL] > 30 µM

* * *

AC50: recorded values
Target: Alpha-1A adrenergic receptor (Homo sapiens, UniProt P35348); also: assay procedure not described here
Sequence (P35348 whole entry): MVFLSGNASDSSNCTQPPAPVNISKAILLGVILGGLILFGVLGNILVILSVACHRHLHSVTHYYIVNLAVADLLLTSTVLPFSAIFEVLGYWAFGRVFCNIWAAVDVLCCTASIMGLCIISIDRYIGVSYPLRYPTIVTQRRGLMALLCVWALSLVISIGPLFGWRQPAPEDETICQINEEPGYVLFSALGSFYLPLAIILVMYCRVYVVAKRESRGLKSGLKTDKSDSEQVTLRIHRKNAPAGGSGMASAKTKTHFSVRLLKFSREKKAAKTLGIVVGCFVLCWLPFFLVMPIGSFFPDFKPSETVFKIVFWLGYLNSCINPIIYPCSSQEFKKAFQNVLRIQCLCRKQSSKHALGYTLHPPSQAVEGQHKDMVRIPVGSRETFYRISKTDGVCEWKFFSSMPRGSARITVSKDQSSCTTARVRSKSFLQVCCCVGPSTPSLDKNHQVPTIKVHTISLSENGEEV
Assay type: functional, cell-based

Below, each entry is followed by its recorded AC50 result.
1) CC(c1cc2ccccc2s1)N(O)C(N)=O (stereo not drawn) | > 30 µM
2) CCOC(=O)[C@@H](N)Cc1ccc(-c2cc(O[C@H](c3ccc(Cl)cc3-n3ccc(C)n3)C(F)(F)F)nc(N)n2)cc1 | > 30 µM
3) CCc1cc2c(s1)-n1c(C)nnc1CN=C2c1ccccc1Cl | > 30 µM
4) COc1ccc2cc(CCC(C)=O)ccc2c1 | > 30 µM
5) CN1Cc2c(N)cccc2C(c2ccccc2)C1 (stereo not drawn) | 13 µM

// fetch AC50; item: CN(Cc1cnc2nc(N)nc(N)c2n1)c1ccc(C(=O)N[C@@H](CCC(=O)O)C(=O)O)cc1 [METHOTREXATE] ; system: Alpha-1A adrenergic receptor (Homo sapiens, UniProt P35348) > 30 µM

// fetch AC50; item: O=C(NCCO[N+](=O)[O-])c1cccnc1 ; system: Alpha-1A adrenergic receptor (Homo sapiens, UniProt P35348) > 30 µM

* * *

Biological target: Muscarinic acetylcholine receptor M2 (Homo sapiens, UniProt P08172); also: assay procedure not described here
Sequence (P08172 whole entry): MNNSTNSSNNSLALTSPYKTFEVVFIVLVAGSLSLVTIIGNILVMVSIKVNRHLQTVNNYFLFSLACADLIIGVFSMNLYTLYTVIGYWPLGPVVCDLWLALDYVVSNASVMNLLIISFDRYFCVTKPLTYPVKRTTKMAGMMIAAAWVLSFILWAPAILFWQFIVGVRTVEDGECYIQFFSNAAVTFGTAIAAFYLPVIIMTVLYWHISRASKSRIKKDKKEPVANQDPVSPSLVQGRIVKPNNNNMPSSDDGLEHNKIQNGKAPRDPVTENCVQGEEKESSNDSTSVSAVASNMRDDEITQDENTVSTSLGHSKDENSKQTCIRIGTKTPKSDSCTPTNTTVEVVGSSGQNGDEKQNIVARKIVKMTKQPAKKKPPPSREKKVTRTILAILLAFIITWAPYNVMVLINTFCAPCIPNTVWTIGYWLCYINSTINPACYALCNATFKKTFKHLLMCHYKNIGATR
Format: functional, cell-based
Measured Property: AC50

Below, each entry is followed by its recorded AC50 result.
1. CN[C@@H](C)[C@@H](O)c1ccccc1 | > 10 µM
2. CC[C@@H](CO)NC(=O)[C@@H]1C=C2c3cccc4c3c(cn4C)C[C@H]2N(C)C1 [METHYSERGIDE] | > 30 µM
3. Cc1cc(=O)n(-c2ccccc2)n1C [ANTIPYRINE] | > 10 µM
4. O=C1c2cccc3c2[C@H](CCC3)CN1[C@@H]1CN2CCC1CC2 | > 30 µM
5. C[N+](C)(C)CCOP(=O)(O)OP(=O)([O-])OC[C@H]1O[C@@H](n2ccc(N)nc2=O)[C@H](O)[C@@H]1O | > 30 µM
6. CCC(=O)O[C@]1(C(=O)CCl)[C@@H](C)C[C@H]2[C@@H]3CCC4=CC(=O)C=C[C@]4(C)[C@@]3(F)[C@@H](O)C[C@@]21C [CLOBETASOL PROPIONATE] | > 30 µM
7. CCOC(=O)c1c(CSc2ccccc2)n(C)c2cc(Br)c(O)c(CN(C)C)c12 | > 30 µM

// switching to the query compound
Write down AC50 measured for item CCOC(=O)c1ccc(N)cc1 > 10 µM

* * *

Target: Alpha-2A adrenergic receptor (Homo sapiens); also: assay procedure not described here
Sequence (P08913 whole entry): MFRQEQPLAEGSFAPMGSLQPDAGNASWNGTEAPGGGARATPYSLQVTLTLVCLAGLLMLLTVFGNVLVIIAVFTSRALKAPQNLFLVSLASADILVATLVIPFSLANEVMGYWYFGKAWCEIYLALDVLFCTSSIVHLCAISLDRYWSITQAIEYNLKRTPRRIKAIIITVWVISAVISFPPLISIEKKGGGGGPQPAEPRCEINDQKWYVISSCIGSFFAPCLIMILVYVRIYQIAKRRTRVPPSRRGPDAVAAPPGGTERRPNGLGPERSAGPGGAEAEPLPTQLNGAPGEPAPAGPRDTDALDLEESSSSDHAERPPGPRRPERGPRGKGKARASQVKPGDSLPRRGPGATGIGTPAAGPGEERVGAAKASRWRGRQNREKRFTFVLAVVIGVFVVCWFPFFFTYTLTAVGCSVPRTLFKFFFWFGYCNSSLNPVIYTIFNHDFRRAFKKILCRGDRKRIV
Type: functional, cell-based
Where a SMILES comes first, the peptide text is derived from it. [ ]: non-standard residue; d: D form. pGlu = O=C1CC[C@@H](C(=O)O)N1; Thz = O=C(O)[C@@H]1CSCN1
AC50: recorded values

Below, each entry is followed by its recorded AC50 result.
1. O=C(O)c1cccnc1Nc1cccc(C(F)(F)F)c1 [NIFLUMIC ACID] | > 10 µM
2. CC[C@H](C)C(=O)O[C@H]1C[C@@H](C)C=C2C=C[C@H](C)[C@H](CC[C@@H]3C[C@@H](O)CC(=O)O3)[C@H]21 [LOVASTATIN] | > 10 µM
3. CC(C)(O/N=C(\C(=O)N[C@@H]1C(=O)N2C(C(=O)[O-])=C(C[n+]3ccccc3)CS[C@H]12)c1csc(N)n1)C(=O)O [CEFTAZIDIME] | > 300 µM
4. CC(C(=O)O)c1ccc2c(c1)CC(=O)c1ccccc1S2 (configuration not stated) [ZALTOPROFEN] | > 30 µM
5. O=c1c(O)c(-c2ccc(O)c(O)c2)oc2cc(O)cc(O)c12 [QUERCETIN] | > 30 µM
6. CCCc1nc2c(C)cc(-c3nc4ccccc4n3C)cc2n1Cc1ccc(-c2ccccc2C(=O)O)cc1 | 3.96 µM

Write down AC50 measured for item O=C1CC[C@@H](C(=O)N2CSC[C@H]2C(=O)O)N1 [PIDOTIMOD] ([pGlu]-[Thz]-OH) > 30 µM

Write down AC50 measured for item CCCC(C)(COC(N)=O)COC(N)=O [MEPROBAMATE] > 10 µM

Write down AC50 measured for item CC1=C(/C=C/C(C)=C/C=C/C(C)=C/CO)C(C)(C)CCC1 [RETINOL] > 10 µM

Write down AC50 measured for item O=C(c1cc(Cc2n[nH]c(=O)c3ccccc23)ccc1F)N1CCN(C(=O)C2CC2)CC1 [OLAPARIB] > 10 µM

Write down AC50 measured for item C[C@]12C/C(=C/O)C(=O)C[C@@H]1CC[C@@H]1[C@@H]2CC[C@@]2(C)[C@H]1CC[C@]2(C)O [OXYMETHOLONE] > 30 µM

Write down AC50 measured for item Cc1cc(=O)n(-c2ccccc2)n1C [ANTIPYRINE] > 10 µM

Write down AC50 measured for item O=C1c2ccccc2C(=O)C1c1ccccc1 [PHENINDIONE] > 10 µM

Write down AC50 measured for item CC(C)NC[C@H](O)COc1ccc(CC(N)=O)cc1 [ESATENOLOL] > 10 µM

Write down AC50 measured for item CC(C)(C)NCC(O)c1ccccc1Cl (configuration not stated) [TULOBUTEROL] > 30 µM

Write down AC50 measured for item CC(C)c1cccc(C(C)C)c1O [PROPOFOL] > 30 µM

Write down AC50 measured for item CC(O)(CS(=O)(=O)c1ccc(F)cc1)C(=O)Nc1ccc(C#N)c(C(F)(F)F)c1 (configuration not stated) [BICALUTAMIDE] > 10 µM

Write down AC50 measured for item c1ccc(C2(N3CCCCC3)CCCCC2)cc1 [PHENCYCLIDINE] > 30 µM

Write down AC50 measured for item OC[C@H]1O[C@@H](Oc2cc(O)cc(/C=C/c3ccc(O)cc3)c2)[C@H](O)[C@@H](O)[C@@H]1O [PICEID] > 30 µM

Write down AC50 measured for item O=C(NCCO[N+](=O)[O-])c1cccnc1 [NICORANDIL] > 30 µM

Write down AC50 measured for item O=C(O)COCCN1CCN(C(c2ccccc2)c2ccc(Cl)cc2)CC1 (configuration not stated) [CETIRIZINE] > 10 µM

Write down AC50 measured for item CCOC(=O)C(C)(C)Oc1ccc(Cl)cc1 [CLOFIBRATE] > 10 µM

Write down AC50 measured for item CO/N=C(\C(=O)N[C@@H]1C(=O)N2C(C(=O)O)=CCS[C@H]12)c1csc(N)n1 [CEFTIZOXIME] > 30 µM

Write down AC50 measured for item NS(=O)(=O)c1cc2c(cc1Cl)N=C(CSCc1ccccc1)NS2(=O)=O [BENZTHIAZIDE] 1.7 µM

Write down AC50 measured for item CC[C@@H](CO)NC(=O)[C@@H]1C=C2c3cccc4c3c(cn4C)C[C@H]2N(C)C1 [METHYSERGIDE] 11 µM

Write down AC50 measured for item CCOC(=O)c1ncn2c1CN(C)C(=O)c1cc(F)ccc1-2 [FLUMAZENIL] > 30 µM
